System: Candida glabrata ZIM 2369 (RPMI)
Assay: Bliss independence sum of statistically significant ΔE (measured minus predicted growth inhibition) over checkerboard surface (fraction (sum of ΔE; 1 = 100%)); higher = more synergy
Details: temperature: 37 °C
parameter: Bliss independence sum

{"columns": ["molecule", "Bliss independence sum"],
 "data": [
  ["CC1(C)S[C@@H]2[C@H](NC(=O)[C@H](N)c3ccc(O)cc3)C(=O)N2[C@H]1C(=O)O [amoxicillin] + CCC(C)n1ncn(-c2ccc(N3CCN(c4ccc(OCC5COC(Cn6cncn6)(c6ccc(Cl)cc6Cl)O5)cc4)CC3)cc2)c1=O [itraconazole]", 0.313]
]}

Now for another entry.
Q: Which Bliss independence sum is reported for this molecule? COc1c(C)c2c(c(O)c1C/C=C(\C)CCC(=O)O)C(=O)OC2 [mycophenolic acid] + CCC(C)n1ncn(-c2ccc(N3CCN(c4ccc(OCC5COC(Cn6cncn6)(c6ccc(Cl)cc6Cl)O5)cc4)CC3)cc2)c1=O [itraconazole]
A: -0.825

###

Tested on: Candida glabrata ZIM 2389 (RPMI)
Assay: Bliss independence sum of statistically significant ΔE (measured minus predicted growth inhibition) over checkerboard surface (fraction (sum of ΔE; 1 = 100%)); higher = more synergy
Conditions: temperature: 37 °C
parameter: Bliss independence sum
// no unit string in output, number only

{"columns": ["compound", "value-reported"],
 "data": [
  ["CN(Cc1cnc2nc(N)nc(N)c2n1)c1ccc(C(=O)N[C@@H](CCC(=O)O)C(=O)O)cc1 [methotrexate] + C[C@@H]1[C@H](O)[C@@H](C)/C=C/C=C/C=C/C=C/C=C/C=C/C=C/[C@H](O[C@@H]2O[C@H](C)[C@@H](O)[C@H](N)[C@@H]2O)C[C@@H]2O[C@](O)(C[C@@H](O)C[C@@H](O)[C@H](O)CC[C@@H](O)C[C@@H](O)CC(=O)O[C@H]1C)C[C@H](O)[C@H]2C(=O)O [amphotericin B]", -2.52],
  ["CC1(C)S[C@@H]2[C@H](NC(=O)[C@H](N)c3ccc(O)cc3)C(=O)N2[C@H]1C(=O)O [amoxicillin] + CCC(C)n1ncn(-c2ccc(N3CCN(c4ccc(OCC5COC(Cn6cncn6)(c6ccc(Cl)cc6Cl)O5)cc4)CC3)cc2)c1=O [itraconazole]", 0.79]
]}

Next compound, Bliss independence sum to be filled in.
Q: If you can, please state the reported Bliss independence sum value of C=CC[C@@H]1/C=C(\C)C[C@H](C)C[C@H](OC)[C@H]2O[C@@](O)(C(=O)C(=O)N3CCCC[C@H]3C(=O)O[C@H](/C(C)=C/[C@@H]3CC[C@@H](O)[C@H](OC)C3)[C@H](C)[C@@H](O)CC1=O)[C@H](C)C[C@@H]2OC [tacrolimus] + OC(Cn1cncn1)(Cn1cncn1)c1ccc(F)cc1F [fluconazole] .
A: 8

###

Test system: Candida glabrata ZIM 2389 (RPMI)
Test: FICI maximum (fractional inhibitory concentration index, Loewe) (dimensionless); higher = less synergy / more antagonism
Conditions: temperature: 37 °C
parameter: FICI maximum
Output spec: single numeric token, no unit.

Reference set, count: 5
{"columns": ["molecule", "FICI maximum"],
 "data": [
  ["C=CC[C@@H]1/C=C(\\C)C[C@H](C)C[C@H](OC)[C@H]2O[C@@](O)(C(=O)C(=O)N3CCCC[C@H]3C(=O)O[C@H](/C(C)=C/[C@@H]3CC[C@@H](O)[C@H](OC)C3)[C@H](C)[C@@H](O)CC1=O)[C@H](C)C[C@@H]2OC [tacrolimus] + CCC(C)n1ncn(-c2ccc(N3CCN(c4ccc(OCC5COC(Cn6cncn6)(c6ccc(Cl)cc6Cl)O5)cc4)CC3)cc2)c1=O [itraconazole]", 0.126],
  ["CN(Cc1cnc2nc(N)nc(N)c2n1)c1ccc(C(=O)N[C@@H](CCC(=O)O)C(=O)O)cc1 [methotrexate] + CCC(C)n1ncn(-c2ccc(N3CCN(c4ccc(OCC5COC(Cn6cncn6)(c6ccc(Cl)cc6Cl)O5)cc4)CC3)cc2)c1=O [itraconazole]", 2.04],
  ["CC1(C)S[C@@H]2[C@H](NC(=O)[C@H](N)c3ccc(O)cc3)C(=O)N2[C@H]1C(=O)O [amoxicillin] + C[C@@H]1[C@H](O)[C@@H](C)/C=C/C=C/C=C/C=C/C=C/C=C/C=C/[C@H](O[C@@H]2O[C@H](C)[C@@H](O)[C@H](N)[C@@H]2O)C[C@@H]2O[C@](O)(C[C@@H](O)C[C@@H](O)[C@H](O)CC[C@@H](O)C[C@@H](O)CC(=O)O[C@H]1C)C[C@H](O)[C@H]2C(=O)O [amphotericin B]", 1.25],
  ["CN(Cc1cnc2nc(N)nc(N)c2n1)c1ccc(C(=O)N[C@@H](CCC(=O)O)C(=O)O)cc1 [methotrexate] + C[C@@H]1[C@H](O)[C@@H](C)/C=C/C=C/C=C/C=C/C=C/C=C/C=C/[C@H](O[C@@H]2O[C@H](C)[C@@H](O)[C@H](N)[C@@H]2O)C[C@@H]2O[C@](O)(C[C@@H](O)C[C@@H](O)[C@H](O)CC[C@@H](O)C[C@@H](O)CC(=O)O[C@H]1C)C[C@H](O)[C@H]2C(=O)O [amphotericin B]", 1.16],
  ["COc1c(C)c2c(c(O)c1C/C=C(\\C)CCC(=O)O)C(=O)OC2 [mycophenolic acid] + OC(Cn1cncn1)(Cn1cncn1)c1ccc(F)cc1F [fluconazole]", 2.25]
]}

Please look at the following molecule next.
Q: Please tell me: FICI maximum of C=CC[C@@H]1/C=C(\C)C[C@H](C)C[C@H](OC)[C@H]2O[C@@](O)(C(=O)C(=O)N3CCCC[C@H]3C(=O)O[C@H](/C(C)=C/[C@@H]3CC[C@@H](O)[C@H](OC)C3)[C@H](C)[C@@H](O)CC1=O)[C@H](C)C[C@@H]2OC [tacrolimus] + OC(Cn1cncn1)(Cn1cncn1)c1ccc(F)cc1F [fluconazole] , system Candida glabrata ZIM 2389 (RPMI)?
A: 1
